Target or test system: aldose reductase (Bos taurus, UniProt P16116)
Construct: partially purified aldose reductase enzyme obtained from calf lens
Assay: inhibition of isolated aldose reductase enzyme activity (procedure of S. Hayman et al. as modified by K. Sestanj et al.)
Condition: partially purified aldose reductase from calf lens; 50% reduction in enzyme activity; read-out: Concentration Level (IC50)
Measure name: IC50 (µM)

{"columns": ["Compound", "Target or test system", "Measured number"],
 "data": [
  ["CN1CCC2(NC(=O)NC2=O)c2cccnc21 (stereo not shown)", "aldose reductase (Bos taurus, UniProt P16116)", 10],
  ["O=C1NC(=O)C2(CCNc3ccc(Cl)cc32)N1 (stereo not shown)", "aldose reductase (Bos taurus, UniProt P16116)", 1]
]}

P: O=C1NC(=O)C2(CCNc3cc(Cl)ccc32)N1 (stereo not shown)
Q: CN1CCC2(NC(=O)NC2=O)c2ccccc21.Cl (stereo not shown) [Product of Example 1, hydrochloride]
// task: argmin of IC50 over [ P , Q ] Your answer should be the label of the entry you select.
P

---

Test system: galactitol levels in the lens of galactosemic subjects
Assay: lowering of galactitol levels in the lens of galactosemic subjects
Type: in vivo
Condition: statement in words
Measure name: lowering galactitol levels in the lens of galactosemic subjects

{"columns": ["Compound", "Target or test system", "Result"],
 "data": [
  ["O=C1NC(=O)C2(CCNc3ccc(Cl)cc32)N1 (stereo not shown)", "galactitol levels in the lens of galactosemic subjects", "extremely effective"],
  ["O=C1NC(=O)C2(CCNc3cc(Cl)ccc32)N1 (stereo not shown)", "galactitol levels in the lens of galactosemic subjects", "extremely effective"],
  ["CN1CCC2(NC(=O)NC2=O)c2ccccc21.Cl (stereo not shown)", "galactitol levels in the lens of galactosemic subjects", "extremely effective"],
  ["CN1CCC2(NC(=O)NC2=O)c2cccnc21 (stereo not shown)", "galactitol levels in the lens of galactosemic subjects", "extremely effective"]
]}
